Each record here notes measured Activity.
Biological target: UniProtKB P00742
Assay: Concentration required to double the lag time of maximum thrombin generation in human plasma-based thrombin generation assay.
Assay type: functional, cell-free

Recorded Activity, per entry:
                                        mol  result
0  Nc1ccc(NC(=O)c2ccc(-c3ccccc3S(N)(=O)=O)cc2)c(C(=O)Nc2ccc(Cl)cn2)c1    3 µM
1  NS(=O)(=O)c1ccccc1-c1ccc(C(=O)Nc2cccnc2C(=O)Nc2ccc(Cl)cn2)cc1  > 5 µM

Summary for this compound, O=C(Nc1ccc(Cl)cc1C(=O)Nc1ccc(Cl)cn1)c1ccc(-c2ccccc2N2CCC(C(=O)O)CC2)cc1 : Activity is > 5 µM

Summary for this compound, CC(=N)NCc1ccccc1-c1ccc(C(=O)Nc2ccc(Cl)cc2C(=O)Nc2ccc(Cl)cn2)cc1 : Activity is > 5 µM

Summary for this compound, Nc1ccc(NC(=O)c2ccc(-c3ccccc3S(N)(=O)=O)cc2)c(C(=O)Nc2ccc(Br)cn2)c1 : Activity is 2.8 µM

Summary for this compound, O=C(Nc1ccc(Cl)cc1C(=O)Nc1ccc(Cl)cn1)c1ccc(-c2ccccc2N2CCC(O)CC2)cc1 : Activity is > 5 µM

Summary for this compound, NS(=O)(=O)c1ccccc1-c1ccc(C(=O)Nc2cnccc2C(=O)Nc2ccc(Cl)cn2)cc1 : Activity is 4.9 µM

* * *

Target: Coagulation factor X (Homo sapiens, UniProt P00742)
Sequence (P00742 41-179 limits assumed): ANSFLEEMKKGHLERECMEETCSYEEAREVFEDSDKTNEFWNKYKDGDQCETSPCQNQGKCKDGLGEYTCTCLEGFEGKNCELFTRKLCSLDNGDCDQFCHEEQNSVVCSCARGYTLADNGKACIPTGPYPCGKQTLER
Sequence (P00742 235-488 limits assumed): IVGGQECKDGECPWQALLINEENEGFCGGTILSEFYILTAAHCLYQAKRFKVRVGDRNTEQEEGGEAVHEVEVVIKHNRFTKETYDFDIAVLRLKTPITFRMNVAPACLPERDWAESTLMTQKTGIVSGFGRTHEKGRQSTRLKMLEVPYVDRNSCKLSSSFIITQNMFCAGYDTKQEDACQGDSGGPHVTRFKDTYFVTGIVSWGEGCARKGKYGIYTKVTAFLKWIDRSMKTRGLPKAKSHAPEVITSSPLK
parameter_measured: IC50 (nM)

>>> df
                                        mol  readout_number
0  NS(=O)(=O)c1ccccc1-c1ccc(C(=O)Nc2ccncc2C(=O)Nc2ccc(Cl)cn2)cc1              18

A = O=C(Nc1ccc(Cl)cc1C(=O)Nc1ccc(Cl)cn1)c1ccc(-c2cccc(N3CCNCC3)c2)cc1
B = CC(=O)Nc1ccc(NC(=O)c2ccc(-c3ccccc3S(N)(=O)=O)cc2)c(C(=O)Nc2ccc(Br)cn2)c1
C = O=C(Nc1ccc(Cl)cc1C(=O)Nc1ccc(Cl)cn1)c1ccc(-c2ccccc2N2CCCCC2)cc1
Q. # desc sort on IC50 across 3 molecules Show the ranking through the labels, in the order asked for.
A. B, A, C

a = O=C(Nc1ccc(Cl)cc1C(=O)Nc1ccc(Cl)cn1)c1ccc(-c2cccc(N3CCCCC3)c2)cc1
b = O=C(Nc1ccc(Cl)cc1C(=O)Nc1ccc(Cl)cn1)c1ccc(-c2cccc(N3CCC(C(=O)O)CC3)c2)cc1
c = CN1CCN(c2cccc(-c3ccc(C(=O)Nc4ccc(Cl)cc4C(=O)Nc4ccc(Cl)cn4)cc3)c2)CC1
Q. # desc sort on IC50 across 3 molecules Show the ranking through the labels, in the order asked for.
A. c, a, b

* * *

Target: UniProtKB P00747
Sequence (P00747 whole entry, looked up): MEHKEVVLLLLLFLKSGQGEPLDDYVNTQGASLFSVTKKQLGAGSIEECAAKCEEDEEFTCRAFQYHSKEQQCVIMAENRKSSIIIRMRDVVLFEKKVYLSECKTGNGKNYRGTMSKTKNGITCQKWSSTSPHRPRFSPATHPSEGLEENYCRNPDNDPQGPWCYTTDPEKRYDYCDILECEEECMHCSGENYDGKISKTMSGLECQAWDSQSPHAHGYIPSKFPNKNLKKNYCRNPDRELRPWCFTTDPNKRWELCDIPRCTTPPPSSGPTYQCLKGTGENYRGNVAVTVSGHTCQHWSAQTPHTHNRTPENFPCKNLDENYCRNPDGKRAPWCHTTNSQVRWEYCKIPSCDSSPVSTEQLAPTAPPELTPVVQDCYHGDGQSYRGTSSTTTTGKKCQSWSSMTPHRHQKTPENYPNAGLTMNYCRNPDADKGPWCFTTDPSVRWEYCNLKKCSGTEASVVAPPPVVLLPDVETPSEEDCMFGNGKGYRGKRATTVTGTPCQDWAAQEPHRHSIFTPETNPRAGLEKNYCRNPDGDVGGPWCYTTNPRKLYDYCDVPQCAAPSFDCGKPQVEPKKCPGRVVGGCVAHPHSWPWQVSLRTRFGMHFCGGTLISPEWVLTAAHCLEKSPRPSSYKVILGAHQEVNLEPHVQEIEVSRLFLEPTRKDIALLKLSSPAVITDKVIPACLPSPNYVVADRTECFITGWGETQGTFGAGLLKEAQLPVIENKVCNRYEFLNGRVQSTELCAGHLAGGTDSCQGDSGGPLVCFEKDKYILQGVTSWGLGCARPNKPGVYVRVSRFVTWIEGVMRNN
pIC50: −log10 of the molar value.
parameter_measured: pIC50

// compound NS(=O)(=O)c1ccccc1-c1ccc(C(=O)Nc2ccccc2C(=O)Nc2ccc(Br)cn2)cc1 , assay UniProtKB P00747, pIC50 value: < 5.00

* * *

Each record here notes measured Activity.
Target: Coagulation factor X (Homo sapiens)
Test: Concentration required to double the lag time of maximum thrombin generation in human plasma-based thrombin generation assay.
Format: functional, cell-free

>>> print(df.to_string())
                                        mol  result
0  O=C(Nc1ccc(Cl)cc1C(=O)Nc1ccc(Cl)cn1)c1ccc(-c2ccccc2N2CCNCC2)cc1  > 5 µM

// moving on: another record for Activity
Summary for this compound, CN1CCN(c2ccccc2-c2ccc(C(=O)Nc3ccc(Cl)cc3C(=O)Nc3ccc(Cl)cn3)cc2)CC1 : Activity is > 5 µM

* * *

Here's a batch of compounds along with measured pIC50 for Coagulation factor X (Homo sapiens, UniProt P00742).
pIC50: −log10 of the molar value.
parameter_measured: pIC50

>>> df
                                        mol                            assayed_system  readout_number
0  CN(C)c1ccccc1-c1ccc(C(=O)Nc2ccc(Cl)cc2C(=O)Nc2ccc(Cl)cn2)cc1  Coagulation factor X (Homo sapiens, UniProt P00742)            9.05
1  CN(C)C(=N)c1ccc(-c2ccc(C(=O)Nc3ccc(Cl)cc3C(=O)Nc3ccc(Cl)cn3)cc2)cc1  Coagulation factor X (Homo sapiens, UniProt P00742)            7.22
2  CN(C)c1cccc(-c2ccc(C(=O)Nc3ccc(Cl)cc3C(=O)Nc3ccc(Cl)cn3)cc2)c1  Coagulation factor X (Homo sapiens, UniProt P00742)            8.46
3  O=C(Nc1ccc(Cl)cc1C(=O)Nc1ccc(Cl)cn1)c1ccc(-c2ccccc2N2CCOCC2)cc1  Coagulation factor X (Homo sapiens, UniProt P00742)            8.39
4  CN1CCCN(c2cccc(-c3ccc(C(=O)Nc4ccc(Cl)cc4C(=O)Nc4ccc(Cl)cn4)cc3)c2)CC1  Coagulation factor X (Homo sapiens, UniProt P00742)            7.66

a = CC(N)=NCc1ccccc1-c1ccc(C(=O)Nc2ccc(Cl)cc2C(=O)Nc2ccc(Cl)cn2)cc1
b = O=C(Nc1ccc(Cl)cc1C(=O)Nc1ccc(Cl)cn1)c1ccc(-c2cccc(N3CCOCC3)c2)cc1
Q. Which has the smaller recorded pIC50, a or b ? Lab note: record the label of whichever item you select.
A. b

I = NS(=O)(=O)c1ccccc1-c1ccc(C(=O)Nc2cnccc2C(=O)Nc2ccc(Cl)cn2)cc1
II = NS(=O)(=O)c1ccccc1-c1ccc(C(=O)Nc2ccccc2C(=O)Nc2ccc(Cl)cn2)cc1
Q. In the pair I and II , the larger recorded pIC50 belongs to which? Lab note: record the label of whichever item you select.
A. II
(II: 8.17, I: 7.64)

I = NCc1ccccc1-c1ccc(C(=O)Nc2ccccc2C(=O)Nc2ccc(Cl)cn2)cc1
II = Nc1ccc(NC(=O)c2ccc(-c3ccccc3S(N)(=O)=O)cc2)c(C(=O)Nc2ccc(Br)cn2)c1
Q. In the pair I and II , the larger recorded pIC50 belongs to which? Lab note: record the label of whichever item you select.
A. II

* * *

Biological target: Coagulation factor X (Homo sapiens, UniProt P00742)
Assay: Concentration required to double the lag time of maximum thrombin generation in human plasma-based thrombin generation assay.
Format: functional, cell-free
parameter_measured: Activity

Recorded Activity, per entry:
                                        mol  result
0  CN(C)C(=N)c1cccc(-c2ccc(C(=O)Nc3ccc(Cl)cc3C(=O)Nc3ccc(Cl)cn3)cc2)c1  > 5 µM
1  NS(=O)(=O)c1ccccc1-c1ccc(C(=O)Nc2ncccc2C(=O)Nc2ccc(Cl)cn2)cc1  > 5 µM
2  CC(=N)NCc1cccc(-c2ccc(C(=O)Nc3ccc(Cl)cc3C(=O)Nc3ccc(Cl)cn3)cc2)c1  > 5 µM
3  Nc1ccc(C(=O)Nc2ccc(Br)cn2)c(NC(=O)c2ccc(-c3ccccc3S(N)(=O)=O)cc2)c1  > 5 µM

Summary for this molecule, NS(=O)(=O)c1ccccc1-c1ccc(C(=O)Nc2ccncc2C(=O)Nc2ccc(Cl)cn2)cc1 : Activity is 2.2 µM
